- Tested Target: Sodium channel protein type 2 subunit alpha (Homo sapiens, UniProt Q99250)
- Sequence (Q99250 whole entry): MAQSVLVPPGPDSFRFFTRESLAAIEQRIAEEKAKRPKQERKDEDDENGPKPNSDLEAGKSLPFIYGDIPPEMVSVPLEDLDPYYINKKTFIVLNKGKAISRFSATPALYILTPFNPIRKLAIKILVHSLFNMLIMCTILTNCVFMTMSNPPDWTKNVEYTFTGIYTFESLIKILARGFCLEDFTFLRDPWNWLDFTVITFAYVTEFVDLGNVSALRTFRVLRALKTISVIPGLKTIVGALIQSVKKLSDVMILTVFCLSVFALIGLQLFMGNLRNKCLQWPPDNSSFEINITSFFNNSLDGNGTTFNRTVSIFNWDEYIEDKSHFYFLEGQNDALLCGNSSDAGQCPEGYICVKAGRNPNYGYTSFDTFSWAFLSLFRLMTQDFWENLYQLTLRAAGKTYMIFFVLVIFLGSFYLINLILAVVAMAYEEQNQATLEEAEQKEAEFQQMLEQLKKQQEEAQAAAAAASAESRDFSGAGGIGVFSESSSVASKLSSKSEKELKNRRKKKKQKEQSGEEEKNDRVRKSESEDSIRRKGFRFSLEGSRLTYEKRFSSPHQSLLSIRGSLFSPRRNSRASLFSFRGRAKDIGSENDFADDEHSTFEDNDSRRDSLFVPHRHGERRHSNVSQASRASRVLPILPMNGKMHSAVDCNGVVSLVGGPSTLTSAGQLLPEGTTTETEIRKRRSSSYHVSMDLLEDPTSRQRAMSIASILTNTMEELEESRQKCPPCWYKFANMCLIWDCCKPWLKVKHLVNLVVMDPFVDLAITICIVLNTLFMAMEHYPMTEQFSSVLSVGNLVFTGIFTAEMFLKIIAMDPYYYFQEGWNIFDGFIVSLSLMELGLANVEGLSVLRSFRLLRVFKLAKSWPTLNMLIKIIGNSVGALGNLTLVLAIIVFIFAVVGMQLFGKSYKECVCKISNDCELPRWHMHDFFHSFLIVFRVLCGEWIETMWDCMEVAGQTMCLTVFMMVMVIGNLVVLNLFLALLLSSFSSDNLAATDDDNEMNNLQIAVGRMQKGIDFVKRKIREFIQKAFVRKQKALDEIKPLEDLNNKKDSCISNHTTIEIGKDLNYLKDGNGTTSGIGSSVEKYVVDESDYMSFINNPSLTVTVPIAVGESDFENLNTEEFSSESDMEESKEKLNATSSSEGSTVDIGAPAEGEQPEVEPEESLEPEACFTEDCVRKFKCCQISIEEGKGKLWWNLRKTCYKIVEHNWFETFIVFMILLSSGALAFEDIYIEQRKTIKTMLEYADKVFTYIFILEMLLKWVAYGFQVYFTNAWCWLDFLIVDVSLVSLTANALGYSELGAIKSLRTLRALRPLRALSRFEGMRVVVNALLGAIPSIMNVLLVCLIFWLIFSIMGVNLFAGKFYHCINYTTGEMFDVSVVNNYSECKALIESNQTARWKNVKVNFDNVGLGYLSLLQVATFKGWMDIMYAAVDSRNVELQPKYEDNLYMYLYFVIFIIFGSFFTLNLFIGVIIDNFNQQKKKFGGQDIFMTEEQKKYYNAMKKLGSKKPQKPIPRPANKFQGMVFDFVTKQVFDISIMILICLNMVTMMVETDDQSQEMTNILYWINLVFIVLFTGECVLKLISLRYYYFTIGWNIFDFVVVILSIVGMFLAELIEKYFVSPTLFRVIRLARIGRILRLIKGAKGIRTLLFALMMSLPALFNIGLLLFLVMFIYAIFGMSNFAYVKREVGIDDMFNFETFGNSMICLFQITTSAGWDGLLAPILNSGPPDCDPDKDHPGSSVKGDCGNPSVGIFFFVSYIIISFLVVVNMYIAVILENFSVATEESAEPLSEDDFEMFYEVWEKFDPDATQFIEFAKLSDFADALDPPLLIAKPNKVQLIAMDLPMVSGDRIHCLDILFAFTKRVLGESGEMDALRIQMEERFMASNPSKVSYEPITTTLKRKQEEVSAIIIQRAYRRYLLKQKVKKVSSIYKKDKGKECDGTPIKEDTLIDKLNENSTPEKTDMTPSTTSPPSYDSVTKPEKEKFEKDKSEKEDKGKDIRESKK
- Test Method Notes: Inhibition of human Nav1.2 expressed in CHO cells assessed as reduction in peak inward current by manual whole cell patch clamp electrophysiology assay
Assay Endpoint: pIC50
Note on units: pIC50 is unitless, being -log10 of a concentration expressed in mol/L.

Form field, pIC50 with Sodium channel protein type 2 subunit alpha (Homo sapiens, UniProt Q99250), item COc1cc(C(=O)NS(C)(=O)=O)c(F)cc1-c1cnc(Oc2cc(F)ccc2F)c(Cl)c1 : 5.01

* * *

- Tested Target: Sodium channel protein type 3 subunit alpha (Homo sapiens, UniProt Q9NY46)
- Sequence (Q9NY46 whole entry): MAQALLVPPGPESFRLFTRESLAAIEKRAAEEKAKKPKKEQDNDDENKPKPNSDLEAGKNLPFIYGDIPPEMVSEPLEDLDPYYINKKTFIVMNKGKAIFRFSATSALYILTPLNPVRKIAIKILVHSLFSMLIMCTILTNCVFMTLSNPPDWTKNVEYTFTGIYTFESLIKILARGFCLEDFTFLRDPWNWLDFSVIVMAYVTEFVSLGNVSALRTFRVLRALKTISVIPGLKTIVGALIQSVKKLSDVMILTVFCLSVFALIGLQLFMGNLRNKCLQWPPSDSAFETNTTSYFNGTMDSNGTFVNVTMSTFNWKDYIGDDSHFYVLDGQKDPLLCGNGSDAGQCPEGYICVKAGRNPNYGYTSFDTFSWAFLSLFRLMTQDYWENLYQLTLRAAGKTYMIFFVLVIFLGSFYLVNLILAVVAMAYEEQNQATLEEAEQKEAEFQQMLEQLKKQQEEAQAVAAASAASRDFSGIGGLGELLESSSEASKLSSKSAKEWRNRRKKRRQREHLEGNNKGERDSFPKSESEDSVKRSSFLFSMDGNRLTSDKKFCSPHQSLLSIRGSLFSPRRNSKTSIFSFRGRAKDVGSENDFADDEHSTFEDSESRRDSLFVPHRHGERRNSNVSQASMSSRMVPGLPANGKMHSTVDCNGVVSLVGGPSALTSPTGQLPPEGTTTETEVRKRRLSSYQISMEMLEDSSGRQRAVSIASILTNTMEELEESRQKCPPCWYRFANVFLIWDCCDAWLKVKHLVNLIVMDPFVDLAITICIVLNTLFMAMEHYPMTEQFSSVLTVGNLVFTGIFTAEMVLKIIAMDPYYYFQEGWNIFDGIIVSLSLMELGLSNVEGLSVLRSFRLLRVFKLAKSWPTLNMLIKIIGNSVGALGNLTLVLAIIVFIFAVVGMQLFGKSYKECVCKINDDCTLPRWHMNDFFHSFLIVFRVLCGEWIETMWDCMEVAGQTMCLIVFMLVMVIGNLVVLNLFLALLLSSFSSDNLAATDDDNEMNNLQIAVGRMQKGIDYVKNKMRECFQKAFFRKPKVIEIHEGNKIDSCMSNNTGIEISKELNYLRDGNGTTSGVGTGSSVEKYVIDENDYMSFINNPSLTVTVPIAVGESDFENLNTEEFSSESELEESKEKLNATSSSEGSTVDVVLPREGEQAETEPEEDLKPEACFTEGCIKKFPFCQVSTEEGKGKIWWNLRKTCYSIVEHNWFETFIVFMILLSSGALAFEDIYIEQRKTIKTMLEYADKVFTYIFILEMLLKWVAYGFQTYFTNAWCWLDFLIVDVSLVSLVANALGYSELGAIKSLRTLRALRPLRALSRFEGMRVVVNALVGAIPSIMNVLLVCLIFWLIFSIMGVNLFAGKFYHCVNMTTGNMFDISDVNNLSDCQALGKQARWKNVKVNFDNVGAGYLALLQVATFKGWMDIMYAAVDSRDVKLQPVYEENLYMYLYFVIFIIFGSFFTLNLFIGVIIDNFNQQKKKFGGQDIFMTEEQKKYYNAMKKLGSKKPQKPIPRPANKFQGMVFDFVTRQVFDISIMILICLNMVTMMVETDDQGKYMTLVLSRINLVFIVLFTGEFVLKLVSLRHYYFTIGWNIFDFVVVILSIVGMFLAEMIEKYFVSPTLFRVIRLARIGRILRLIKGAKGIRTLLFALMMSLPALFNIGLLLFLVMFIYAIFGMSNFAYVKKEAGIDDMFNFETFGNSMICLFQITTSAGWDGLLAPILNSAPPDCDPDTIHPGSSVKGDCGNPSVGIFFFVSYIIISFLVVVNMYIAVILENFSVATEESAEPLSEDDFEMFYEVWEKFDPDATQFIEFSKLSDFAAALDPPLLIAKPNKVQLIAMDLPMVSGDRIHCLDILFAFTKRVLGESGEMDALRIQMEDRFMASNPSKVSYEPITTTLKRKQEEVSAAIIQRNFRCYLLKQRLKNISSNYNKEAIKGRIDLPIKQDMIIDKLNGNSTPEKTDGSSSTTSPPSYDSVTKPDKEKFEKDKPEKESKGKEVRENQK
- Test Method Notes: Inhibition of human Nav1.3 expressed in CHO cells assessed as reduction in peak inward current by manual whole cell patch clamp electrophysiology assay
Assay Endpoint: IC50 (µM)
Give the quantity in µM, number only.

Form: compound = COc1cc(C(=O)NS(C)(=O)=O)c(F)cc1-c1cnc(Oc2cc(F)ccc2F)c(Cl)c1 ; IC50 = 12.5
